target: MAO-B (Homo sapiens); construct: purchased Sigma-Aldrich; experiment: biochemical; conditions: MAO-A vs. MAO-B IC50 ratio
readoutName: SI (selectivity index, ratio of IC50 MAO-A to MAO-B)

[[record]]
molecule = "COC(=O)c1ccc(O/N=C(/C=C/c2ccc(OC)cc2)c2ccc(OC)cc2)cc1"
val = ">11.8"

[[record]]
molecule = "COc1ccc(/C=C/C(=N/Oc2ccc(/C=C/C(=O)c3ccccc3)cc2)c2ccc(OC)cc2)cc1"
val = ">31.3"

[[record]]
molecule = "COc1cc(/C=C/C(=O)c2ccc(ON=C(c3ccccc3)c3ccccc3)cc2)cc(OC)c1OC"
val = ">10.5"

[[record]]
molecule = "COc1ccc(/C=C/C(=O)c2ccc(O/N=C(/C=C/c3ccc(OC)cc3)c3ccc(OC)cc3)cc2)cc1"
val = ">66.7"

[[record]]
molecule = "COc1ccc(/C=C/C(=O)c2ccc(ON=C3CCCCC3)cc2)cc1"
val = ">47.6"

[[record]]
molecule = "COc1ccc(C(=O)/C=C/c2ccc(O/N=C(\\C)c3ccc(OC)cc3)cc2)cc1"
val = ">38.5"

[[record]]
molecule = "COc1ccc(C(=O)/C=C/c2ccc(O/N=C(\\C)c3ccccc3)cc2)cc1"
val = ">35.7"

[[record]]
molecule = "COc1ccc(/C=C/C(=O)c2ccc(O/N=C(\\C)c3ccc(F)cc3)cc2)cc1"
val = ">5.5"

[[record]]
molecule = "C/C(=N\\Oc1ccc(/C=C/C(=O)c2ccccc2)cc1)c1ccc(F)cc1"
val = ">8.9"

[[record]]
molecule = "Cc1ccc(/C=C/C(=O)c2ccc(O/N=C3\\CCc4ccccc43)cc2)cc1"
val = ">37.0"


----------
target: MAO-B (Homo sapiens, UniProt P27338); construct: purchased Sigma-Aldrich; test: biochemical; conditions: mean ± standard error of duplicates; reference compounds after 30 min preincubation with enzyme; read-out: IC50 (µM) MAO-B
Sequence (P27338 whole entry): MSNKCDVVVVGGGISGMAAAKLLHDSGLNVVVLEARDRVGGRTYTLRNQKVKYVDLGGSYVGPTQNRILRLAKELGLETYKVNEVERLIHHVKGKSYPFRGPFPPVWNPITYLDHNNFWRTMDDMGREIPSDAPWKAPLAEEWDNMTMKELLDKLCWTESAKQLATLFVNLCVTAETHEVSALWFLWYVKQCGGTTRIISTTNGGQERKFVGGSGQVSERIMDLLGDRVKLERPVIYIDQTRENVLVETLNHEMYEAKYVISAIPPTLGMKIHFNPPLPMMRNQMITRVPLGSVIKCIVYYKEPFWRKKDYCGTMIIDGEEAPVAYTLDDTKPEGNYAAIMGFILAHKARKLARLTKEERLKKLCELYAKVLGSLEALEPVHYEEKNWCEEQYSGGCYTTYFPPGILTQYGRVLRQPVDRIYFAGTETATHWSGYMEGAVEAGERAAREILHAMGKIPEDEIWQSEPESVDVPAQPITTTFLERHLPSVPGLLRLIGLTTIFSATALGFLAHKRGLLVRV
Catalogue of IC50 values
readoutName: IC50 (µM)

[[record]]
molecule = "COc1ccc(C(/C=C/c2ccccc2)=N\\Oc2ccc(C(C)=O)cc2)cc1"
unittag = "µM"
relationoperator = ">"
val = 10

[[record]]
molecule = "COc1ccc(C(=O)/C=C/c2ccc(O/N=C(\\C)c3ccccc3)cc2)cc1"
unittag = "µM"
relationoperator = "="
val = 0.28

[[record]]
molecule = "COc1ccc(C(/C=C/c2ccccc2)=N\\Oc2ccc(C(=O)/C=C/c3cc(OC)c(OC)c(OC)c3)cc2)cc1"
unittag = "µM"
relationoperator = ">"
val = 10

[[record]]
molecule = "C/C(=N\\Oc1ccc(/C=C/C(=O)c2cccc3ccccc23)cc1)c1cccs1"
unittag = "µM"
relationoperator = "="
val = 0.037

[[record]]
molecule = "COc1ccc(/C=C/C(=O)c2ccc(O/N=C(\\C)c3ccc(F)cc3)cc2)cc1"
unittag = "µM"
relationoperator = "="
val = 1.82

[[record]]
molecule = "COc1cccc(/C=C/C(=O)c2ccc(O/N=C(\\C)c3cccs3)cc2)c1"
unittag = "µM"
relationoperator = "="
val = 0.13

[[record]]
molecule = "COc1ccc(/C=C/C(=N/Oc2ccc(/C=C/C(=O)c3ccc(OC)cc3)cc2)c2ccc(OC)cc2)cc1"
unittag = "µM"
relationoperator = "="
val = 0.35

[[record]]
molecule = "Cc1ccc(/C=C/C(=O)c2ccc(O/N=C3\\CCc4ccccc43)cc2)cc1"
unittag = "µM"
relationoperator = "="
val = 0.27

